- assay.procedure: Plasma concentration in rat at 10 mg/kg, po after 3 hrs
- Assay type: ADME, organism-based
- Parameters: dose 10 mg/kg, route oral
value.kind: concentration at 3 h (µM)
Respond numerically; units are µM and should not be typed.

q: Output measured concentration at 3 h for this item: COc1cc(/C=C2\CCCN3C2=NOC[C@@H]3c2ccccc2)ccc1-n1cnc(C)c1
a: 6.2

q: Output measured concentration at 3 h for this item: COc1cc(/C=C2\CCCN3C2=NOC[C@@H]3c2cc(F)c(F)c(F)c2)ccc1-n1cnc(C)c1
a: 10.7

q: Output measured concentration at 3 h for this item: COc1cc(/C=C2\CCCN3C2=NOC[C@@H]3c2cc(F)c(OC)c(F)c2)ccc1-n1cnc(C)c1
a: 6.3

q: Output measured concentration at 3 h for this item: COc1cc(/C=C2\CCCN3C2=NOC[C@@H]3c2cc(F)cc(Cl)c2)ccc1-n1cnc(C)c1
a: 7.2

q: Output measured concentration at 3 h for this item: COc1cc(/C=C2\CCCN3C2=NOC[C@@H]3c2ccc(F)cc2)ccc1-n1cnc(C)c1
a: 6.7

----------
- assay.procedure: AUC (0 to 6 hrs) in rat plasma at 10 mg/kg, po
- Type: ADME, organism-based
- Parameters: time < 6 hr, dose 10 mg/kg, route oral
Consider the following compounds; for each one, report its AUC(0-t) at 6 h.
Respond numerically; units are µM·h and should not be typed.

q: Output measured AUC(0-t) at 6 h for this item: COc1cc(/C=C2\CCCN3C2=NOC[C@@H]3c2cc(F)cc(Cl)c2)ccc1-n1cnc(C)c1
a: 24.6

q: Output measured AUC(0-t) at 6 h for this item: COc1cc(/C=C2\CCCN3C2=NOC[C@@H]3c2ccc(F)cc2)ccc1-n1cnc(C)c1
a: 86.5

q: Output measured AUC(0-t) at 6 h for this item: COc1cc(/C=C2\CCCN3C[C@H](c4cc(F)c(F)c(F)c4)ON=C23)ccc1-n1cnc(C)c1
a: 24.3

q: Output measured AUC(0-t) at 6 h for this item: COc1cc(/C=C2\CCCN3C2=NOC[C@@H]3c2cc(F)c(OC)c(F)c2)ccc1-n1cnc(C)c1
a: 22.7

q: Output measured AUC(0-t) at 6 h for this item: COc1cc(/C=C2\CCCN3C2=NOC[C@@H]3c2ccccc2)ccc1-n1cnc(C)c1
a: 17.6

q: Output measured AUC(0-t) at 6 h for this item: COc1cc(/C=C2\CCCN3C2=NOC[C@@H]3c2cc(F)c(F)c(F)c2)ccc1-n1cnc(C)c1
a: 87.4

----------
- study.system: Gamma-secretase
- assay.procedure: Modulation of gamma-secretase expressed in HEK293 cells co-expressing APPsw-lon assessed as reduction of amyloid-beta-42 level by sandwich immunoassay
value.kind: IC50 (µM)
Respond numerically; units are µM and should not be typed.

q: Report value: IC50, system: Gamma-secretase, compound: COc1cc(/C=C2\CCCN3C2=NOC[C@@H]3COCc2ccccc2)ccc1-n1cnc(C)c1
a: 0.1

q: Report value: IC50, system: Gamma-secretase, compound: COc1cc(/C=C2\CCCN3CC(CO[Si](c4ccccc4)(c4ccccc4)C(C)(C)C)ON=C23)ccc1-n1cnc(C)c1 (racemic)
a: 0.056

q: Report value: IC50, system: Gamma-secretase, compound: COc1cc(/C=C2\CCCN3CC(C(O)c4cc(F)cc(F)c4)ON=C23)ccc1-n1cnc(C)c1 (racemic)
a: 0.076

q: Report value: IC50, system: Gamma-secretase, compound: COc1cc(/C=C2\CCCN3C2=NOC[C@@H]3c2ccccc2)ccc1-n1cnc(C)c1
a: 0.087

q: Report value: IC50, system: Gamma-secretase, compound: COc1cc(/C=C2\CCCN3C2=NO[C@]3(CO)c2ccc(F)cc2)ccc1-n1cnc(C)c1
a: 0.029

q: Report value: IC50, system: Gamma-secretase, compound: COc1cc(/C=C2\CCCN3C2=NOC[C@@H]3CNC(=O)c2cccc(Cl)c2)ccc1-n1cnc(C)c1
a: 0.82

q: Report value: IC50, system: Gamma-secretase, compound: COc1cc(/C=C2\O[C@@H](C)CN3C2=NOC[C@@H]3c2cc(F)cc(F)c2)ccc1-n1cnc(C)c1
a: 0.035

q: Report value: IC50, system: Gamma-secretase, compound: COc1cc(/C=C2\CCCN3C2=NOCC3(CO)c2ccc(F)cc2)ccc1-n1cnc(C)c1 (racemic)
a: 13.3
